These compounds were tested on Liver; Toxicity Data Liver is the recorded read-out.

Consider the worked cases shown below.
# compound, Toxicity Data Liver
measured = [
    ("C=CCOc1c(C)c2c(c3c1[C@H]1SC[C@]4(NCCc5cc(O)c(OC)cc54)C(=O)OC[C@@H]3N3C1[C@H]1c4c(cc(C)c(OC)c4O)C[C@@H]([C@@H]3O)N1C)OCO2 (stereo partly shown)", "3.03E-08"),
    ("COc1cc2c(cc1OC(=O)/C=C/c1ccccc1)CCN[C@]21CS[C@@H]2c3c(OC(C)=O)c(C)c4c(c3[C@H](COC1=O)N1C2[C@@H]2N[C@@H](Cc3cc(C)c(OC)c(O)c32)[C@@H]1O)OCO4 (stereo partly shown)", "8.68E-08"),
    ("CCCCCCCCCCCCCCCC(=O)Oc1c(C)c2c(c3c1[C@H]1SC[C@]4(NCCc5cc(O)c(OC)cc54)C(=O)OC[C@@H]3N3C1[C@H]1c4c(cc(C)c(OC)c4O)C[C@@H]([C@@H]3O)N1C)OCO2 (stereo partly shown)", "3.58E-07"),
]

Okay, next one:
What is its Toxicity Data Liver for Liver? Entry: COc1cc2c(cc1OC(=O)OC(C)(C)C)CCN[C@]21CS[C@@H]2c3c(OC(C)=O)c(C)c4c(c3[C@H](COC1=O)N1C2[C@H]2c3c(cc(C)c(OC)c3OC(=O)OC(C)(C)C)C[C@@H]([C@@H]1O)N2C)OCO4 (stereo partly shown)
1.47E-08
